experimentDescription: total protein half-life in vivo (active degradation + dilution); higher = more stable protein
details: wild type E. coli NCM3722; growth: C-lim chemostat; doubling time 6 h
propertyName: total protein half-life in vivo (h)
Unit h implied. Number only.

- MASQLTDAFARKFYYLRLSITDVCNFRCTYCLPDGYKPSGVTNKGFLTVDEIRRVTRAFARLGTEKVRLTGGEPSLRRDFTDIIAAVRENDAIRQIAVTTNGYRLERDVASWRDAGLTGINVSVDSLDARQFHAITGQDKFNQVMAGIDAAFEAGFEKVKVNTVLMRDVNHHQLDTFLNWIQHRPIQLRFIELMETGEGSELFRKHHISGQVLRDELLRRGWIHQLRQRSDGPAQVFCHPDYAGEIGLIMPYEKDFCATCNRLRVSSIGKLHLCLFGEGGVNLRDLLEDDTQQQALEARISAALREKKQTHFLHQNNTGITQNLSYIGG: 1.11

INPUT: Indicate its recorded total protein half-life in vivo; the sequence in question is MKNQAHPIIVVKRRKAKSHGAAHGSWKIAYADFMTAMMAFFLVMWLISISSPKELIQIAEYFRTPLATAVTGGDRISNSESPIPGGGDDYTQSQGEVNKQPNIEELKKRMEQSRLRKLRGDLDQLIESDPKLRALRPHLKIDLVQEGLRIQIIDSQNRPMFRTGSADVEPYMRDILRAIAPVLNGIPNRISLSGHTDDFPYASGEKGYSNWELSADRANASRRELMVGGLDSGKVLRVVGMAATMRLSDRGPDDAVNRRISLLVLNKQAEQAILHENAESQNEPVSALEKPEVAPQVSVPTMPSAEPR [P0AF06]
OUTPUT: 1.21

INPUT: Indicate its recorded total protein half-life in vivo; the sequence in question is MEKGTVKWFNNAKGFGFICPEGGGEDIFAHYSTIQMDGYRTLKAGQSVQFDVHQGPKGNHASVIVPVEVEAAVA [P0A968]
OUTPUT: 0.386

INPUT: Indicate its recorded total protein half-life in vivo; the sequence in question is "MKRNLLSSAIIVAIMSLGLTGCDDKKAETETLPPANSQPAAPAPEAKPTEAPVAKAEAKPETPAQPVVDEQAVFDEKMDVYIKCYNKLQIPVQRSLARYADWLKDFKQGPTGEERTVYGIYGISESNLAECEKGVKSAVALTPALQPIDGVAVSYIDAAVALGNTINEMDKYYTQENYKDDAFAKGKTLHQTFLKNLEAFEPVAESYHAAIQEINDKRQLAELKNIEEREGKTFHYYSLAVMISAKQINNLISQDKFDAEAAMKKVSELETLVAQAKEADKGGMNFSFINSAGQYQLEAKKYVRRIRDKVPYSDWDKEQLQDANSSWMVEDSFPRALREYNEMVDDYNSLR"
OUTPUT: 6.58

INPUT: Indicate its recorded total protein half-life in vivo; the sequence in question is "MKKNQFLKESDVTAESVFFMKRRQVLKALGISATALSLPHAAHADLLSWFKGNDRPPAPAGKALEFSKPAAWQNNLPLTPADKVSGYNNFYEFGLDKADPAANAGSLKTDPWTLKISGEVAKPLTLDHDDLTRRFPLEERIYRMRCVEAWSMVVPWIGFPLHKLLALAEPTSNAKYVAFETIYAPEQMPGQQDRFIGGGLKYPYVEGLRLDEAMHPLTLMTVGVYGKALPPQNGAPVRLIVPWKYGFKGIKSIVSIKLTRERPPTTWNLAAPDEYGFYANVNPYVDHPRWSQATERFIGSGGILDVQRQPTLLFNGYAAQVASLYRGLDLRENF"
OUTPUT: 5.58

INPUT: Indicate its recorded total protein half-life in vivo; the sequence in question is MNTVCTHCQAINRIPDDRIEDAAKCGRCGHDLFDGEVINATGETLDKLLKDDLPVVIDFWAPWCGPCRNFAPIFEDVAQERSGKVRFVKVNTEAERELSSRFGIRSIPTIMIFKNGQVVDMLNGAVPKAPFDSWLNESL [P0AGG4]
OUTPUT: 3.09
